System: HL-60(TB) leukemia
assay.info: NCI tumour cell line growth inhibition, 48 h
quantity: TGI

[[record]]
compound = "CCN(Cc1ccccc1)C1CCN(Cc2cc(Br)ccc2O)CC1"
experimental_value = "98.8 µM"

[[record]]
compound = "COc1ccc(N=NC(=O)NC(CC(C)C)C(N)=O)cc1 (stereo not given)"
experimental_value = "> 100 µM"

[[record]]
compound = "COc1ccc2c(c1OC)CO[C@@H]2[C@H]1c2c(cc3c(c2OC)OCO3)CCN1S(=O)(=O)c1cn(C)cn1"
experimental_value = "4.9 µM"

[[record]]
compound = "COC1=CC2(CC(OC)=C1OC)OC21COc2ccccc2C1=O (stereo not given)"
experimental_value = "> 100 µM"

[[record]]
compound = "O=C(/C=C(\\S/C=C(/c1ccccc1)N1CCn2c(C(=O)c3ccccc3)c(C(=O)c3ccccc3)c(C(=O)c3ccccc3)c21)C(=O)c1ccccc1)c1ccccc1"
experimental_value = "> 10 µM"

[[record]]
compound = "CN(C)c1ccc2oc(=O)c3ccccc3c2c1"
experimental_value = "> 100 µM"

[[record]]
compound = "NC(CCOCCP(=O)(O)O)C(=O)O (stereo not given)"
experimental_value = "> 100 µM"

[[record]]
compound = "CC(=O)Nc1c(Nc2ccccc2)[nH]c(C)nc1=S"
experimental_value = "> 100 µM"

[[record]]
compound = "O=C(O)c1ccc(C2=Cc3cc(Cl)ccc3OC2)cc1"
experimental_value = "> 100 µM"

[[record]]
compound = "COc1ccc2c3c([nH]c2c1)CCN(CCCC(=O)c1ccc(F)cc1)C3"
experimental_value = "33.2 µM"


====

Tested on: NCI-H226 lung
assay.info: NCI tumour cell line growth inhibition, 48 h
quantity: TGI (µM)

[[record]]
compound = "O=C1CC(c2ccccc2)=Nc2ccccc2N1"
limit_sign = ">"
experimental_value = 100

[[record]]
compound = "Cc1ccc(/C=N/Nc2nc(Nc3ccccc3)nc(-n3nc(C)cc3C)n2)cc1"
limit_sign = "="
experimental_value = 37.7

[[record]]
compound = "O=[N+]([O-])C=C(c1ccc(Cl)cc1)c1ccc(Cl)cc1"
limit_sign = "="
experimental_value = 30.7

[[record]]
compound = "O=C(N/N=C\\c1ccc(N(CCCl)CCCl)cc1[N+](=O)[O-])c1cccnc1"
limit_sign = ">"
experimental_value = 100

[[record]]
compound = "N=c1c2c(=S)n(-c3ccccc3)c(=S)n(-c3ccccc3)c2nc(SCCN2CCCC2)n1-c1ccccc1"
limit_sign = "="
experimental_value = 18.4

[[record]]
compound = "O=C(CC1OC(O)C(Cl)=C1Cl)c1cccnc1 (stereo not given)"
limit_sign = ">"
experimental_value = 100

[[record]]
compound = "C[CH2][Ge]([CH2]C)([CH2]C)[O]C(=O)C(OC(C)=O)c1ccccc1 (stereo not given)"
limit_sign = ">"
experimental_value = 100

[[record]]
compound = "Cc1cccc(C2SCc3nc4ccccc4n32)c1 (stereo not given)"
limit_sign = "="
experimental_value = 60.9

[[record]]
compound = "CCOC(=O)C(Cc1ccc(OC(=O)OC(C)(C)C)cc1)NC(=O)OC(C)(C)C (stereo not given)"
limit_sign = ">"
experimental_value = 100

[[record]]
compound = "COc1cc(Nc2ncc(-c3ccccc3)o2)cc(OC)c1"
limit_sign = ">"
experimental_value = 25

[[record]]
compound = "Clc1ccc(-c2cn3c(nc4ccccc43)c(/C=C/c3ccco3)n2)cc1"
limit_sign = ">"
experimental_value = 100

[[record]]
compound = "CN(c1ccc(C(=O)c2ccc(N(C)S(C)(=O)=O)cc2)cc1)S(C)(=O)=O"
limit_sign = ">"
experimental_value = 100

[[record]]
compound = "O=S(=O)(O)c1cc(O)c(N=Nc2ccc(O)cc2O)c2ccccc12"
limit_sign = "="
experimental_value = 48.5

[[record]]
compound = "CCOC(=O)Nc1ccc2c(c1)c(CCCCCCc1nc3ccccc3c3ccc(NC(=O)OCC)cc13)nc1ccccc12"
limit_sign = "="
experimental_value = 81

[[record]]
compound = "C=C1C(=O)O[C@@H]2[C@H](O)[C@@H](C)[C@@H]3C=CC(=O)[C@@]3(C)[C@@H](OC(=O)/C(C)=C/C)[C@H]12"
limit_sign = "="
experimental_value = 8.97

[[record]]
compound = "COc1cc(OC)cc(-c2n/c(=C\\c3c(O)[nH]c4ccc(OC)cc34)cc3c2=Nc2ccccc2-3)c1"
limit_sign = "="
experimental_value = 56.9

[[record]]
compound = "CC1/C(=N\\O)CC(c2ccccc2)N(C)C1c1ccccc1 (stereo not given)"
limit_sign = ">"
experimental_value = 100

[[record]]
compound = "NC1=Nc2cc(Cl)ccc2Sc2nc3ccccc3n21"
limit_sign = ">"
experimental_value = 100

[[record]]
compound = "Cc1csc2c1-n1cccc1C2=O"
limit_sign = ">"
experimental_value = 100

[[record]]
compound = "NCC(O)CNC(=O)c1ccc(-c2ccc(-c3ccc(C(=O)NCC(O)CN)cc3)o2)cc1 (stereo not given)"
limit_sign = "="
experimental_value = 55.4


====

System: NCI-H460 lung
assay.info: NCI tumour cell line growth inhibition, 48 h
Recorded measurements of TGI, one per entry
quantity: TGI

[[record]]
molecule = "COC(=O)C1Cc2c(n(C)c3ccccc23)C(CCC(=O)O)N1Cc1ccccc1 (centres undefined)"
experimental_value = "80.7 µM"

[[record]]
molecule = "COc1cc(/C=C/C(=O)/C=C/c2ccc(-n3ccnc3C)cc2)ccc1O"
experimental_value = "43.4 µM"

[[record]]
molecule = "O=C(O)c1cnc(-n2[nH]c3c(c2=O)CCCC3)[nH]c1=O"
experimental_value = "> 100 µM"

[[record]]
molecule = "CCOC(=O)NC(OC)(C(F)(F)F)C(F)(F)F"
experimental_value = "> 100 µM"

[[record]]
molecule = "CCCCCCCCCCCC[C@@H](O)[C@H]1CCC([C@H](O)CCCCC(=O)CCCCCCCC2=C[C@H](C)OC2=O)O1 (some centres undefined)"
experimental_value = "> 50 µM"

[[record]]
molecule = "COc1ccc(Cc2coc3ccccc3c2=O)cc1OC"
experimental_value = "> 100 µM"

[[record]]
molecule = "COc1cc(/C=N/Nc2ncnc3c2cnn3-c2ccccc2)ccc1O"
experimental_value = "> 25 µM"

[[record]]
molecule = "COC(=O)c1ccc(C)cc1CC1Cc2ccc(C)cc2C1=O (centres undefined)"
experimental_value = "31.3 µM"

[[record]]
molecule = "O=C1CC[C@@]2(O)[C@H]3Cc4ccc(-c5ccccc5)c5c4[C@@]2(CCN3CC2CC2)[C@H]1O5"
experimental_value = "35.5 µM"

[[record]]
molecule = "CC(=O)c1c2c(cc3c1CC1(C3)Cc3cc4c(c(C(C)=O)c3C1)CCC4)CCC2"
experimental_value = "> 100 µM"

[[record]]
molecule = "CC1=C(/C=C/C(C)=C/C2CC(N(C)C)=CC(=O)O2)C(C)(C)CCC1 (centres undefined)"
experimental_value = "42.4 µM"

[[record]]
molecule = "Cc1cc2c(cc1Cl)S/C(=C/C(=O)O)C(Nc1ccc3ncsc3c1)=NS2(=O)=O"
experimental_value = "> 100 µM"

[[record]]
molecule = "N=c1c2c(=S)n(-c3ccccc3)c(=S)n(-c3ccccc3)c2nc(SCCN2CCCC2)n1-c1ccccc1"
experimental_value = "3.63 µM"

[[record]]
molecule = "NC(CCOCCP(=O)(O)O)C(=O)O (centres undefined)"
experimental_value = "> 100 µM"

[[record]]
molecule = "NC1=Nc2cc(Cl)ccc2Sc2nc3ccccc3n21"
experimental_value = "> 100 µM"

[[record]]
molecule = "S=c1[nH]n2c(CCCCCCCCc3nnc4sc(=S)[nH]n34)nnc2s1"
experimental_value = "> 100 µM"

[[record]]
molecule = "Cc1ccc(C2=C(C#N)C(N)OC3=C2COc2ccccc23)cc1 (centres undefined)"
experimental_value = "> 100 µM"

[[record]]
molecule = "CC1/C(=N\\O)CC(c2ccccc2)N(C)C1c1ccccc1 (centres undefined)"
experimental_value = "> 100 µM"

[[record]]
molecule = "O=[N+]([O-])C(/C=N/Nc1ccccc1)/C=N/Nc1ccccc1"
experimental_value = "> 100 µM"

[[record]]
molecule = "CN(C)c1ccc(/C=C(\\NC(=O)c2ccccc2)C2=NC(CCC(=O)O)C(=O)O2)cc1 (centres undefined)"
experimental_value = "> 50 µM"

[[record]]
molecule = "COc1ccc(-c2nc(-c3ccc(C)cc3)cn3ccnc23)cc1"
experimental_value = "20.1 µM"

[[record]]
molecule = "COc1cc2c3c(n(C)c(=O)c2cc1OC)-c1cc2c(cc1/C3=C\\CCCI)OCO2"
experimental_value = "> 100 µM"

[[record]]
molecule = "C=C1C(O)C[C@H](OC(C)=O)[C@]2(C)C1C(OC(C)=O)[C@]1(C(C)(C)O)CC(O)C(C)=C1[C@@H](OC(=O)c1ccccc1)C2OC(C)=O (some centres undefined)"
experimental_value = "> 10 µM"

[[record]]
molecule = "CC(=O)Oc1c2c(c3n(c1=O)CCCC3)C(=O)N(c1ccccc1)C2=O"
experimental_value = "> 100 µM"

[[record]]
molecule = "C[C@@H]1C(=O)C[C@H]2C(C)(C)CCC[C@]2(C)[C@@]1(O)CCc1ccoc1"
experimental_value = "> 100 µM"

[[record]]
molecule = "COC(=O)C1=C(O)[C@H](C(=O)OC)C2(O)C(C(=O)OC)[C@H](c3ccc(OC(=O)C(C)c4ccc(CC(C)C)cc4)cc3)C[C@@H]1[C@@H]2C(=O)OC (some centres undefined)"
experimental_value = "> 50 µM"

[[record]]
molecule = "Cc1ccc(C(=O)Nc2ccc(CP(=O)(O)O)cc2CP(=O)(O)O)cc1NC(=O)Nc1cc(C(=O)Nc2ccc(CP(=O)(O)O)cc2CP(=O)(O)O)ccc1C"
experimental_value = "> 100 µM"

[[record]]
molecule = "CC(=O)[O-].Cn1ccnc1CNCc1nccn1C.[Cu+2].[O-][Cl+3]([O-])([O-])[O-]"
experimental_value = "> 100 µM"

[[record]]
molecule = "Cc1cc(S(=O)(=O)Nc2nc3ccccc3nc2-c2ccc(Cl)cc2)c(S)cc1Cl"
experimental_value = "29.4 µM"

[[record]]
molecule = "CNC(=O)c1c(NC(=O)c2ccc(C(C)(C)C)cc2)sc2c(CN(C)C)c(O)ccc12"
experimental_value = "2.53 µM"

[[record]]
molecule = "COc1ccc2c3c([nH]c2c1)CCN(CCCC(=O)c1ccc(F)cc1)C3"
experimental_value = "36.4 µM"

[[record]]
molecule = "CC(C)(C)c1ccc(Oc2ccc(N)cn2)cc1"
experimental_value = "> 100 µM"

[[record]]
molecule = "CC(=O)Nc1c(Nc2ccccc2)[nH]c(C)nc1=S"
experimental_value = "> 100 µM"

[[record]]
molecule = "O=C(O)c1ccc(C2=Cc3cc(Cl)ccc3OC2)cc1"
experimental_value = "> 100 µM"


From: PubChem BioAssay (NCI)
